B1: Subtilisin-chymotrypsin inhibitor-2A, P01053 (parent)
chain: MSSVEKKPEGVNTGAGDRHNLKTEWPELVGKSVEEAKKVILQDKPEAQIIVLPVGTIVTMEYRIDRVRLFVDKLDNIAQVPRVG

- Variants of: B1
- Condition Context: Hordeum vulgare; pH 6.3; 25 °C; GdnHCl; Fluorescence; MES 450 mM; reversible: yes; structure 2CI2; whole UniProt chain shown
Experimental Endpoint: ddG of mutation (higher = less stable)

- Residues: "MSSVEKKPEGVNTGAGDRHNLKTEWPEAVGKSVEEAKKVILQDKPEAQIIVLPVGTIVTMEYRIDRVRLFVDKLDNIAQVPRVG [L28A]"
  Experimental Endpoint: "ddG of mutation (higher = less stable)"
  Reported Result: "1.91 kcal/mol"
- Residues: "MSSVEKKPEGVNTGAGDRHNLKTEWPELVGKSVEEAKKVILQDKPEAQAIVLPVGTIVTMEYRIDRVRLFVDKLDNIAQVPRVG [I49A]"
  Experimental Endpoint: "ddG of mutation (higher = less stable)"
  Reported Result: "3.4 kcal/mol"
- Residues: "MSSVEKKPEGVNTGAGDRHNLKTEWPELVGKSVEEAKKVILQDKPEAQIIVLPVGTIVTMEYRIDRVRLFADKLDNIAQVPRVG [V71A]"
  Experimental Endpoint: "ddG of mutation (higher = less stable)"
  Reported Result: "1.13 kcal/mol"
- Residues: "MSSVEKKPEGVNTGAGDRHNLKTEWPELVGKSVEEAKKVILQDKPEAQVIVLPVGTIVTMEYRIDRVRLFVDKLDNIAQVPRVG [I49V]"
  Experimental Endpoint: "ddG of mutation (higher = less stable)"
  Reported Result: "0.75 kcal/mol"
- Residues: "MSSVEKKPEGVNTGAGDRHNLKTEWPELVGKSVEEAKKVILQDKPEAQIIVLPVGTIVTMEYRIDRVRLFVDKLDNAAQVPRVG [I77A]"
  Experimental Endpoint: "ddG of mutation (higher = less stable)"
  Reported Result: "4.09 kcal/mol"
- Residues: "MSSVEKKPEGVNTGAGDRHNLKTEWPELVGKSVEEAKKVILQDKPEAQAIVLPVGTIVTMEYRIDRVRLFVDKLDNVAQVPRVG [I49A I77V]"
  Experimental Endpoint: "ddG of mutation (higher = less stable)"
  Reported Result: "4.08 kcal/mol"
- Residues: "MSSVEKKPEGVNTGAGDRHNLKTEWPELVGKSVEEAKKVILQDKPEAQIIVLPVGTIVTMEYRIDRVRAFVDKLDNIAQVPRVG [L69A]"
  Experimental Endpoint: "ddG of mutation (higher = less stable)"
  Reported Result: "3.56 kcal/mol"
- Residues: "MSSVEKKPEGVNTGAGDRHNLKTEWPELVGKSVEEAKKVVLQDKPEAQIIVLPVGTIVTMEYRIDRVRLFVDKLDNIAQVPRVG [I40V]"
  Experimental Endpoint: "ddG of mutation (higher = less stable)"
  Reported Result: "0.91 kcal/mol"
- Residues: "MSSVEKKPEGVNTGAGDRHNLKTEWPELVGKSVEEAKKAILQDKPEAQIIVLPVGTIVTMEYRIDRVRLFVDKLDNIAQVPRVG [V39A]"
  Experimental Endpoint: "ddG of mutation (higher = less stable)"
  Reported Result: "0 kcal/mol"
- Residues: "MSSVEKKPEGVNTGAGDRHNLKTEWPELVGKSVEEAKKVILQDKPEAQIIVLPVGTIVTMEYRIDRARLFVDKLDNIAQVPRVG [V67A]"
  Experimental Endpoint: "ddG of mutation (higher = less stable)"
  Reported Result: "4.97 kcal/mol"

Ref: FireProtDB (doi:10.1021/bi00093a001)
